Experiment: Inhibition of CSF1R in mouse M-NFS-60 cells assessed as inhibition of cell proliferation after 72 hrs by Celltiter-Blue assay
measure: IC50 (nM)
Only the number, expressed in nM, is required.

Some solved entries appear below for comparison.
{"columns": ["entry-smiles", "unit-label", "observed-measurement"],
 "data": [
  ["CCN1C(C)(C)CC(Oc2ccc(C(=O)Nc3ccc(NC(=O)Nc4cc(C(C)(C)C)on4)cc3)nc2)CC1(C)C", "nM", 46.3],
  ["CC(C)(C)c1cc(NC(=O)Nc2ccc(NC(=O)c3ccc(OC4CCN(C5CC5)CC4)cn3)cc2)no1", "nM", 150],
  ["Cc1ccnc(C(=O)Nc2ccc(NC(=O)Nc3cc(C(C)(C)C)on3)cc2)c1", "nM", 63.9]
]}

# next compound below
Q: Kindly indicate its recorded IC50. Item: `CC(C)N1CCC(Oc2ccc(C(=O)Nc3ccc(NC(=O)Nc4cc(C(C)(C)C)on4)cc3)nc2)CC1`
Result: 78

###

Assay: Inhibition of CSF1R in mouse M-NFS-60 cells assessed as inhibition of cell proliferation after 72 hrs by Celltiter-Blue assay
measure: IC50 (nM)
Only the number, expressed in nM, is required.

Q: Kindly indicate its recorded IC50. Item: `CC1(C)CC(Oc2ccc(C(=O)Nc3ccc(NC(=O)Nc4cc(C(C)(C)C)on4)cc3)nc2)CC(C)(C)N1`
Result: 74.7

###

Assay: Inhibition of CSF1R in mouse M-NFS-60 cells assessed as inhibition of cell proliferation after 72 hrs by Celltiter-Blue assay
measure: pIC50
# log scale: pIC50 equals minus log10 of the concentration in mol/L

Some solved entries appear below for comparison.
{"columns": ["entry-smiles", "pIC50"],
 "data": [
  ["CN1C(C)(C)CC(Oc2ccc(C(=O)Nc3ccc(NC(=O)Nc4cc(C(C)(C)C)on4)cc3)nc2)CC1(C)C", 7.30],
  ["CC(C)(C)c1cc(NC(=O)Nc2ccc(NC(=O)c3ccc(OC4CCN(C(C)(C)C)CC4)cn3)cc2)no1", 7.19]
]}

# next compound below
Q: Kindly indicate its recorded pIC50. Item: `Cc1ccc(C(=O)Nc2ccc(NC(=O)Nc3cc(C(C)(C)C)on3)cc2)nc1`
Result: 6.65

From: BindingDB's records for doi:10.1021/ml300214g
